- System: PLN cells from B6C3F1 mice
- methodNotes: In vitro proliferation (3H-TdR) of PLN cells from immunized B6C3 F1 mice
- Assay type: in vivo
- Set-up: key: −: cpm values are corrected and categorized according to unrelated antigen response in vitro.; •: Not determined.; +: cpm values are corrected and categorized according to unrelated antigen response in vitro.; ++: cpm values are corrected and categorized according to unrelated antigen response in vitro.; +++: cpm values are corrected and categorized according to unrelated antigen response in vitro.; ++++: cpm values are corrected and categorized according to unrelated antigen response in vitro
- conditionContext: in vitro antigen: analogous peptide
quantityKind: In Vitro Proliferation of PLN Cells from B6C3F1, Analogous Peptide

[
  {
    "itemSequence": "VYYGVPVWKEA [Peptide 104]",
    "resultValue": "++++"
  },
  {
    "itemSequence": "YLRDQQLLGIWGC [Peptide 61, gp160 aa 586-598]",
    "resultValue": "++"
  },
  {
    "itemSequence": "KKFNGTGPCTN [Peptide 115]",
    "resultValue": "++"
  },
  {
    "itemSequence": "CRIKQIINMWQGVGKAMYA [Peptide 65, gp160 aa 417-435; polymeric form of the T-helper cell peptide]",
    "resultValue": "++"
  },
  {
    "itemSequence": "SVITQACSKVSFE [Peptide 113]",
    "resultValue": "++"
  },
  {
    "itemSequence": "GVPVWKEATTLFC [Peptide 105]",
    "resultValue": "++++"
  },
  {
    "itemSequence": "GTGPCTNVSTVQC [Peptide 116]",
    "resultValue": "++"
  },
  {
    "itemSequence": "SLKPCVKLTPLC [Peptide 112]",
    "resultValue": "+"
  },
  {
    "itemSequence": "FEPIPIHYCAFPGF [Peptide 114]",
    "resultValue": "++"
  },
  {
    "itemSequence": "VLENVTENFNM [Peptide 108]",
    "resultValue": "+"
  },
  {
    "itemSequence": "VQCTHGIRPVVSTQ [Peptide 117]",
    "resultValue": "+++"
  },
  {
    "itemSequence": "FLGFLGAAGSTMGAASLTLTVQANQ [Peptide 63, gp160 aa 519-543]",
    "resultValue": "++"
  }
]
